Hi there, I'd appreciate the recorded MIC for every entry that follows.
Test system: Klebsiella aerogenes
Experiment: Antibacterial activity against Enterobacter aerogenes after 17 hrs by serial two fold dilution method
Format: functional

Need MIC of CC(=O)OCC1=C(C(=O)O)N2C(=O)[C@@H](NC(=O)Cn3cccc3)[C@H]2SC1 , thanks.
> 100 µg/mL

Need MIC of Cn1nnnc1SCC1=C(C(=O)O)N2C(=O)[C@@H](NC(=O)Cn3ccc4ccccc43)[C@H]2SC1 , thanks.
50 µg/mL

Need MIC of Cc1nnc(SCC2=C(C(=O)O)N3C(=O)[C@@H](NC(=O)Cn4ccc5ccccc54)[C@H]3SC2)s1 , thanks.
100 µg/mL

Need MIC of Cn1nnnc1SCC1=C(C(=O)O)N2C(=O)[C@@H](NC(=O)Cn3cccc3C=O)[C@H]2SC1 , thanks.
100 µg/mL

Need MIC of Cc1nnc(SCC2=C(C(=O)O)N3C(=O)[C@@H](NC(=O)Cn4cnnn4)[C@H]3SC2)s1 , thanks.
> 50 µg/mL

Need MIC of Cc1nnc(SCC2=C(C(=O)O)N3C(=O)[C@@H](NC(=O)Cn4cccc4C=O)[C@H]3SC2)s1 , thanks.
> 100 µg/mL

Need MIC of CC(=O)OCC1=C(C(=O)O)N2C(=O)[C@@H](NC(=O)Cn3cccc3C=O)[C@H]2SC1 , thanks.
> 100 µg/mL

Need MIC of CC1=C(C(=O)O)N2C(=O)[C@@H](NC(=O)Cn3ccc4ccccc43)[C@H]2SC1 , thanks.
> 100 µg/mL
